# Tested on: MS2 coat protein
# procedure-details: apparent KD of MS2 coat protein; designed switch direction (-1 OFF switch, 1 ON switch): 1; higher = weaker reporter binding
# particulars: input ligand: microRNA oligo, concentration not stated
Please enter class 1 where apparent KD of MS2 coat protein is greater than or equal to 100 nM, and class 0 where it is lower.

Use these answered entries as a reference point.
- residue-codes: "UGUUAUUAGACAGGAUAUUGAAUGUUAAGUAUUAACAUGAGGAUCACCCAUGUAUUUGAUUGGUACAAGAAGGGUCAUGUUCCU [JR_SSNG2_Sub016] (Eterna round: R96, puzzle: Same State NG 2)"
  assigned-category: "class 1"
- residue-codes: "ACAUGAGACUUAGGAUAUCUUGUACCUACAUGUGACAUGAGGAUCACCCAUGUGGUAAGUAUGACAGAGAAGGAAGAGAUAUGU [Equivalance 68 - Jieux - Same State NG 2] (Eterna round: R96, puzzle: Same State NG 2)"
  assigned-category: "class 0"
- residue-codes: "GGAGCCAAGGCAGGAUAUUCAUAUAAAUUAACAUGAGGAUCACCCAUGUAGGCCAGAAGGCCUUGGGAGAAGGGCCAUGGCUCG [Xeonanis - 13 mod8] (Eterna round: R96, puzzle: Same State NG 2)"
  assigned-category: "class 1"
- residue-codes: "GUUACAUGAGGAUCACCCAUGUAUGUGUGGGAGUAAGUGUCUUAGGAUAUCUGUUAUUUGAUUUAAGAGAAGGAAGAUUGUUGU [JMF's solution 40] (Eterna round: R96, puzzle: Same State NG 3)"
  assigned-category: "class 0"
- residue-codes: "AAAAUAAAUACAGGAUAUAGCCGCCUAAAGCGGCUAGAAGGGUAGAUCGAAAUACAUGAGGAUCACCCAUGUGCACGUAAGUGC [Eresesgeti] (Eterna round: R96, puzzle: Same State NG 1)"
  assigned-category: "class 1"

For this sequence, is measured apparent KD of MS2 coat protein 100 nM or higher? AGCUAUCGAAAACGAUAGCAAAGGCAUGUACAUGAGGAUCACCCAUGUCAUGUACAAGCUUUUUGCUCGUCUUAAAA [Zipper 23 - 3] (Eterna round: R96, puzzle: Sensor for hsa-mir-208a)
class 0

For this sequence, is measured apparent KD of MS2 coat protein 100 nM or higher? GCUAGAAUAAAUGCCUACAUGAGGAUCACCCAUGUAUGUAGGCAGGAUAUCGUUUGCAAAGCAAACGAGAAGGGCCUUACUAGC [Mat - Same State NG 3 - JL Mod - D29] (Eterna round: R96, puzzle: Same State NG 3)
class 0

For this sequence, is measured apparent KD of MS2 coat protein 100 nM or higher? AUUUUUAAUGCAGGAUAUGAUUAACAUGAGGAUCACCCAUGUGGUGUUGUGAGUAAGGAGAGUGAUCAGAAGGGCAGUUUUUUU [JMF's solution 79] (Eterna round: R96, puzzle: Same State NG 2)
class 1

For this sequence, is measured apparent KD of MS2 coat protein 100 nM or higher? GGAGCUGUUAUAGGAUAUCCCGCGCAUUACGCGGGAGAAGGGUGACGCUCACAUGAGGAUCACCCAUGUGGCGUUCCAAAAUAA [Rate] (Eterna round: R96, puzzle: Same State NG 1)
class 0

====

# System: MS2 coat protein
# procedure-details: apparent KD of MS2 coat protein; higher = weaker reporter binding
# particulars: Eterna round: R107; input ligand: arginine 13.2 mM
Listing: apparent KD of MS2 coat protein of selected sequences
Please answer using the number first and the unit second.

In the examples that follow, each entry is paired with its recorded apparent KD of MS2 coat protein.
- residue-codes: "GGUGGCUCCAUCGAUACCAGCCACCACCGAUAGACCACAUGAGGAUCACCCAUGUUGGGUGGCCCUUGGCAGCGGUGAAGCUGCC [#1 Same State - Theophylline B Attempt #4 (HarryS)]"
  apparent KD of MS2 coat protein: "0.0441 µM"
- residue-codes: "UCAUGCAGGUCGGCCGCCACUACACACAUGAGGAUCACCCAUGUAGUUACUGGGUGAAGUGGCAGUAGGACCGGGACCUGCAUAU [Brourdmod08]"
  apparent KD of MS2 coat protein: "0.155 µM"
- residue-codes: "AGUACUCGAACGGAUACCAGCCGGACAUGAGGAUCACCCAUGUCCUACCAUGUUUCGGUUGGCCCUUGGCAGCCGUUCGUGUACA [Omei Theo B SS A v1]"
  apparent KD of MS2 coat protein: "0.207 µM"
- residue-codes: "ACAUGAACAUGAGGAUCACCCAUGUGGGAUACCAGCGUGUAUGAGCGCCCUUGGCAGCUCAUGACAUGAGGAUCACCCAUGUUGG [Exclusion Theophylline A 4]"
  apparent KD of MS2 coat protein: "0.154 µM"

Which apparent KD of MS2 coat protein is reported for this sequence? GGACUAACUCGAAGGAGCGACGCGCAGAAACUGCAAUUUCCUCCACACGAGGAUCACCCGUGUCAGGUAGGUCGCGAGUUAGUCG [ArgBX 29]
0.0149 µM

Which apparent KD of MS2 coat protein is reported for this sequence? UUCUUUAAGUCGGCCGCCACUGAAACAUGAGGAUCACCCAUGUAAAUUUGGGAGUAGGUAUAUUACAGGACCGGGACUAUAGUAA [JR_ExcTryptoB_Sub021]
0.0292 µM

Which apparent KD of MS2 coat protein is reported for this sequence? GCCGGUACGUCGGCAAAGCCGAUGUGCCAGCGAGGACCGGUACGGCCGCCACUCGUACAUGAGGAUCACCCAUGUCCGGUCCGGC [Omei Trp SS A C v1]
0.0267 µM

====

Listing: apparent KD of MS2 coat protein of selected sequences
# Tested on: MS2 coat protein
# procedure-details: apparent KD of MS2 coat protein; designed switch direction (-1 OFF switch, 1 ON switch): -1; higher = weaker reporter binding
# particulars: input ligand: FMN 200 uM
Value expressed in µM; do not type the unit.

In the examples that follow, each entry is paired with its recorded apparent KD of MS2 coat protein.
- residue-codes: "ACAUGAGGAUCACCCAUGUAAACAUAAUGGCUCAUGUAGAGUCAGGAUAUGCGUGGCGAACUCGCGCAGAAGGGACAAGACUGG [Deportation 23 - Jieux - Exclusion NG 3] (Eterna round: R96, puzzle: Exclusion NG 3)"
  units: "µM"
  apparent KD of MS2 coat protein: 0.0267
- residue-codes: "AGCUAAAUAGGAUAUGCCCGGGAUAACAUGAGGAUCACCCAUGUGACCGAUUCAUGUCCUGCAGAAGGGUUUGGGA [Mod of ViennaUCT 6 - Jieux - Exclusion 5] (Eterna round: R97, puzzle: Exclusion 5)"
  units: "µM"
  apparent KD of MS2 coat protein: 0.0143
- residue-codes: "UAUGGUUAAGUCAGGAUAUGCUCGUAGAGGUCUAUGCAGAAGGGACAUGAGGAUCACCCAUGUAAAGUCGUGUU [Ex4 #70] (Eterna round: R97, puzzle: Brourd's mod of Exclusion 4)"
  units: "µM"
  apparent KD of MS2 coat protein: 0.0515

Please find the next sequence below.
Which apparent KD of MS2 coat protein is reported for this sequence? AGCUGUGGCCGAGGAUAUCUAAUAGUCCCAACCGAAAUAUAAUCGGACAUGAGGAUCACCCAUGUAGAGAAGGCGGUCUCAGCA [Eli eng2 - 069] (Eterna round: R96, puzzle: Exclusion NG 2)
0.286

====

# System: MS2 coat protein
# procedure-details: apparent KD of MS2 coat protein, switch OFF state (with FMN for OFF switches, without FMN for ON switches); designed switch direction (-1 OFF switch, 1 ON switch): -1; higher = weaker reporter binding
# particulars: FMN input: 0 or 200 uM; Eterna round: R93 (includes R88 designs)
Listing: apparent KD of MS2 coat protein of selected sequences
Value expressed in nM; do not type the unit.

In the examples that follow, each entry is paired with its recorded apparent KD of MS2 coat protein.
- residue-codes: "AUCAUGUAAGGAUAUUCAAGAAAAGAAAAGAAAGAAAAGAAGAAGAAGGUACAUGAGGAUCACCCAUGUAAGAA [EteRNA is fun!]"
  apparent KD of MS2 coat protein (nM): 64.2
- residue-codes: "AAAAAGGCAGGAUAUACAUGAGGAUCACCCAUGUAAAGAAAGAAAGAGGUGAAAGAAAGUAGAAGGGCCAAAAA [Ex3 sub 2]"
  apparent KD of MS2 coat protein (nM): 72
- residue-codes: "AGCUAGUCAGGAUAUACGAACAAGACAAAAGACGAGAACGGACAUGAGGAUCACCCAUGUAGAAGGGACUAGCA [Diamond 8]"
  apparent KD of MS2 coat protein (nM): 28.8

Please find the next sequence below.
Give recorded apparent KD of MS2 coat protein with MS2 coat protein for the following sequence: GAAACUAGAGGAUAUACGUACAUGUCAAAAGACGUGAAGGGACAUGAGGAUCACCCAUGUAGAAGGCUAGAAAG [Mat - Exclusion 2 - JL mod - D98]
54.2
